experiment: NCI Yeast Anticancer Drug Screen. Data for the bub3 strain (AID 167)
condition.details: S. cerevisiae bub3 mutant strain, at 50.0 µM, hits give high values
About 79,000 compounds went through this panel and 15% of them were active in at least one assay; those are over-represented in the sample as a whole.
reported.metric: growth inhibition (%)
One number for each entry, in %.

# annotated cases, reported growth inhibition shown
> print(dat)
                                   compound  recorded.number
1  C/C(=N\N=P(c1ccccc1)(c1ccccc1)c1ccccc1)C(C)(C)C              4.5
2      CC(=O)O/N=C1\C=Cc2c(no[n+]2[O-])C1=O            -12.5
3         CCn1c(=NC(=O)c2ccccc2O)sc2ccccc21             -5.7
4  O=C(NC(CO)CO)c1ccc2cc(C(=O)N3CC(CCl)c4ccc([N+](=O)[O-])cc43)[nH]c2c1 (configuration not stated)            -36.1
5  C/C(=N/NC(N)=O)C1CCC(C)CC1 (configuration not stated)              8.2

Here are 2 compounds. What values of growth inhibition were reported for them?
1. O=[N+]([O-])C(C(Cl)=C(Cl)Cl)=C(N1CCCCC1)N1CCCCC1
2. C[n+]1ccsn1

-- reply
[-19.4, -19.4]

---

experiment: NCI Yeast Anticancer Drug Screen. Data for the bub3 strain (AID 167)
condition.details: S. cerevisiae bub3 mutant strain, at 50.0 µM, hits give high values
Procedure: Growth inhibition of yeast strains with defined genetic alterations is measured as a screen for potential anti-cancer activity. Selected strains with alterations in DNA damage repair or cell cycle control were exposed to compounds and growth inhibition was measured relative to vehicle treated controls. The strain used in this assay is bub3
About 79,000 compounds went through this panel and 15% of them were active in at least one assay; those are over-represented in the sample as a whole.
reported.metric: growth inhibition (%)
Numbers only, in %.

Here are 2 compounds together with their reported answers.
compound	growth inhibition (%)
CC(C)(C)c1ccc(O)c(Sc2cc(C(C)(C)C)ccc2O)c1	12.6
OC(CBr)c1cc(-c2ccccc2)nc2c(Cl)cc(Cl)cc12 (configuration not stated)	11.8

Provide growth inhibition for all items below, preserving their order.
1. CC1CC(=O)Oc2ccccc21 (configuration not stated)
2. CC1OC(OCC2OC(Oc3c(-c4ccc(O)cc4)oc4cc(O)cc(O)c4c3=O)C(OC3OC(C)C(O)C(O)C3O)C(O)C2O)C(O)C(O)C1O (configuration not stated)

-- reply
[5.95, -2.9]

# per-item lookup of growth inhibition; items listed below
1. c1cnc2cccnc2c1
2. COc1ccccc1/C=C1\C(=O)N(C(=O)Cc2ccccc2)N=C1C

-- reply
-8.6
-3.85

Provide each entry's growth inhibition from the list below.
1. Cc1cccc(C)c1NC(=S)N1CCC(CCCC2CCN(C(=S)Nc3c(C)cccc3C)CC2)CC1
2. O=C1CSSCC(=O)Nc2ccccc2N1

-- reply
1. 4.8
2. 19.4

For each of the items listed, what is its growth inhibition?
1. CCOC(=O)/C(C#N)=C/N=c1ccccn1C
2. COc1ccc(C2N(NC(=O)c3ccncc3)C(=O)CS2(=O)=O)cc1F (configuration not stated)
3. Cc1ccc(NC(=O)CCC(=O)C(C)C(=O)c2ccccc2)cc1C (configuration not stated)
4. CCN(CC)C(=N)N
5. Cc1ccc(/C(C#N)=C/c2cccc([N+](=O)[O-])c2)cc1
6. NC(=S)N=Nc1c(O)[nH]c2c(Cl)cc(Cl)cc12

-- reply
1: -6.6; 2: 0.75; 3: -12.8; 4: -22; 5: -17.4; 6: 13.8

Quick one: give me growth inhibition for each item below, same order please.
1. Cc1ccc(S(=O)(=O)c2ccc(O)c(C)c2)c(O)c1 (tested in a mixture with another compound)
2. CCOC(=O)/C=C/C(=O)N(C)c1ccccc1

-- reply
1. 33.4
2. -12.7

-- ask Bench note: what growth inhibition did [Fe+2].[Fe+2].c1ccc2c(c1)-c1nc-2nc2[n-]c(nc3nc(nc4[n-]c(n1)c1ccccc41)-c1ccccc1-3)c1cc3c4nc5nc(nc6[n-]c(nc7nc(nc([n-]4)c3cc21)-c1ccccc1-7)c1ccccc61)-c1ccccc1-5 show?
-- reply 6.75
